# Test system: SK-OV-3 ovarian
# assay.text: NCI-60 one-dose screen, 48 h
# experimental.context: 10 µM unless noted
About 83,000 compounds went through this panel and 20% of them were active in at least one assay; those are over-represented in the sample as a whole. Activity calls are given as the source filed them. How the source made its calls: active means growth percent below 10; inactive means the rest.
Outcome codes: active, inactive

* Cn1c(-c2c(N)n(Cc3ccc(C(F)(F)F)cc3)c3nc(C#N)c(C#N)nc23)nc2ccccc21 | active
* N#Cc1c(N)nc(NCCO)nc1-c1ccc(F)cc1 | inactive
* O=C(CC(SCc1ccccc1)c1ccccc1)c1ccccc1 (stereo not given) | inactive
* O=c1cc(-c2ccc(Cl)cc2)[nH]c2ccccc12 | inactive
* NS(=O)(=O)c1cnccc1Oc1cccc2cccnc12 | inactive
* CN(C)CCCn1c(=O)c2ccccc2c2ccccc21 | inactive
* Cc1ccc(Nc2nc(N)nc(CSCC(=O)NN)n2)cc1 | inactive
* O=C(CCCCCCN1CC(=O)N2[C@@H](c3ccccc3Cl)c3[nH]c4ccccc4c3C[C@H]2C1=O)NO | inactive
* CC(C)C(=O)Nc1n[nH]c2cc(-c3cccc(NS(=O)(=O)C4CC4)c3)ccc12 | inactive
* COc1ccc(-c2csc(C3=C(O)CN(CCCN4CCCC4=O)C3=N)n2)cc1OC | inactive
* Cc1cccc(NC(=O)CSc2nc3ccccc3[nH]2)c1 | inactive
* O=C(NCCCNc1cc(-c2cn(-c3ccccc3)nc2-c2cccc(O)c2)ccn1)c1ccccc1 | inactive
* CCCCNC(=O)Oc1ccc2c(=O)c3sc4c(=O)c5ccccc5c(=O)c4c3c(=O)c2c1 | active
* O=C1Nc2ccccc2/C1=C/c1cn(C(=O)c2c(Cl)cccc2Cl)c2ccccc12 | inactive
* CS(=O)(=O)c1ccc(Nc2nc(N[C@H]3CCCC[C@H]3N)nc3cc[nH]c(=O)c23)cc1 | inactive
* COc1cc(/C=N/n2c(CN3CCOCC3)nc3ccccc3c2=O)cc(OC)c1OC | inactive
* CCc1c2c(nc3ccc(OC(=O)OCc4ccc(B5OC(C)(C)C(C)(C)O5)cc4)cc13)-c1cc3c(c(=O)n1C2)COC(=O)[C@]3(O)CC | active
* O=C(CSc1nnc(-c2ccc(NC(=O)c3cccnc3)cc2)o1)Nc1cccc(Br)c1 | inactive
* C=C1C(=O)O[C@H]2[C@H]1CC/C(CNC(=O)/C=C/c1ccc(Cl)cc1Cl)=C\CC[C@@]1(C)O[C@@H]21 | inactive
* O=c1c2c3c(sc2n2c(-c4cc(-c5ccccc5)nn4-c4ccccc4)nnc2n1Cc1ccccc1)CCCC3 | inactive

====

# System: NCI-H23 lung
# assay.text: NCI-60 one-dose screen, 48 h
# experimental.context: 10 µM unless noted
# Protocol: Growth inhibition of the NCI-H23 human Non-Small Cell Lung tumor cell line is measured as a screen for anti-cancer activity. Cells are grown in 96 well plates and exposed to the test compound for 48 hours. Compounds are tested at a single concentration, which is 10^-5 M for most compounds. The reported endpoint is percent growth (GI% or GIPRCNT), where numbers from 0 - 100% represent growth inhibition, and numbers from -100% - 0 represent cell death. […]
This is part of a sample that, as a whole, favours compounds with a hit. Of some 83,000 tested, about 20% had one in any assay. Active and inactive are the calls of the source. Rule for the calls: active = growth percent below 10; inactive = the rest.
Outcomes: class 1 (active), class 0 (inactive)

• COc1cc(C(=O)/C=C/c2c(-c3ccc(F)cc3)nc3sc(C)cn23)cc(OC)c1OC = class 0
• COc1ccc2[nH]c(O)c(/C=c3/cc4c(c(-c5cc(OC)c(OC)c(OC)c5)n3)=Nc3ccccc3-4)c2c1 = class 0
• C#CCOc1nc(C)cc(C)c1C#N = class 0
• CC(C)(C)c1ccc(/C=C/C(=O)Nc2ccc(O)cc2)cc1 = class 0
• CN(C)CC1=NC2SC=C(c3ccccc3)C2C(=O)N1CC#N (stereo not given) = class 0
• CC1=C(SCCC(=O)OC(C[Se]C2=C(C)C(=O)c3ccccc3C2=O)C(=O)NCCCCCC(=O)OCc2ccccc2)C(=O)c2ccccc2C1=O (stereo not given) = class 0
• O=C(NC(CSSCC(NC(=O)c1ccccc1)C(=O)O)C(=O)O)c1ccccc1 (stereo not given) = class 0
• CN(C)c1ccc(-c2ccc3[nH]c(=O)nc(-c4ccccc4)c3c2)cn1 = class 0
• O=c1[nH][n+](-c2ccc(Cl)cc2)no1 = class 0
• O=C(CCCCCCSc1nc(-c2ccccc2)cc(-c2ccc(Cl)cc2)n1)NO = class 1

====

# Tested on: NCI-H23 lung
# assay.text: NCI-60 one-dose screen, 48 h (100 = growth as untreated, 0 = no growth, -100 = all killed)
# experimental.context: 10 µM unless noted
# Experimental: Growth inhibition of the NCI-H23 human Non-Small Cell Lung tumor cell line is measured as a screen for anti-cancer activity. Cells are grown in 96 well plates and exposed to the test compound for 48 hours. Compounds are tested at a single concentration, which is 10^-5 M for most compounds. The reported endpoint is percent growth (GI% or GIPRCNT), where numbers from 0 - 100% represent growth inhibition, and numbers from -100% - 0 represent cell death. […]
About 83,000 compounds went through this panel and 20% of them were active in at least one assay; those are over-represented in the sample as a whole.
Overview of recorded growth for various compounds
test.readout: growth (%)

* COc1cccc(-c2nn(-c3ccccc3)cc2-c2ccnc(NCCCNC(=O)Nc3ccc(Cl)c(Cl)c3)c2)c1 | 15.1
* Cc1ccc(-c2cc(-c3cccnc3)[nH]c(=O)c2C#N)cc1 | 103
* O=C(NCCCNc1cc(-c2cn(-c3ccccc3)nc2-c2cccc(O)c2)ccn1)c1cccc(O)c1 | 67.3
* CCN(CC)CCCCCCNc1cc(OC)c(Cl)c2cccnc12 | 76.9
* N#C/C(=C\c1ccc(-c2ccccc2F)o1)c1nc(-c2ccco2)cs1 | 85.5

====

# System: MDA-MB-231 breast
# assay.text: NCI-60 one-dose screen, 48 h (100 = growth as untreated, 0 = no growth, -100 = all killed)
# experimental.context: 10 µM unless noted
Compounds without any hit were thinned out: in the full panel of roughly 83,000, 20% have a hit. Active and inactive are the calls of the source. Rule for the calls: active = growth percent below 10; inactive = the rest.
test.readout: growth

• COc1ccc2c(c1)CCCN2c1c2ccccc2nc2ccccc12 = 6.06% (active)
• COc1cc(C2CC(=O)Nc3c2c(C)nn3-c2nc3ccccc3[nH]2)c(OC)c2c1OCO2 (stereo not given) = 73.4% (inactive)
• COc1ccc(C(=O)Nn2c(NCC(=O)N3c4ccccc4Sc4ccccc43)nnc2-c2ccc(O)cc2)cc1 = 101% (inactive)
• O=C1Nc2ccccc2/C1=C/c1cn(C(=O)c2c(Cl)cccc2Cl)c2ccccc12 = 55.1% (inactive)
• CC1SC(c2ccc(OCc3ccccc3)cc2)N(NC(=O)C(O)(c2ccccc2)c2ccccc2)C1=O (stereo not given) = 76.5% (inactive)
• O=c1[nH]ccc2nc(N3CCC(O)CC3)nc(Nc3ccc(N4CCOCC4)cc3)c12 = 64.3% (inactive)
• O=c1c2c3c(sc2n2c(-c4cc(-c5ccccc5)nn4-c4ccccc4)nnc2n1Cc1ccccc1)CCCC3 = 94.2% (inactive)
• COc1ccc2c(c1)[nH]c(=O)c1c3cccnc3cn21 = 28.9% (inactive)
• O=C(COc1ccc(/C=C2\Oc3ccccc3C2=O)cc1)c1ccc(Cl)cc1 = 85.7% (inactive)
• COc1cc(N2C(=O)c3nccnc3C2=O)cc(OC)c1OC = 93.1% (inactive)

====

# Tested on: SK-OV-3 ovarian
# assay.text: NCI-60 one-dose screen, 48 h
# experimental.context: 10 µM unless noted
The panel holds about 83,000 compounds, 20% with a hit somewhere; the sample as a whole holds those more often. The source made the active and inactive calls. How the source made its calls: active means growth percent below 10; inactive means the rest.
Possible outcomes: true for active, false for inactive

* COc1ccc(CNC(=O)C(O)C(Cc2ccccc2)NC(=O)c2[nH]c3ccccc3c(=O)c2C)cc1OC (stereo not given) | false
* S=C(Cc1ccc2c(c1)CCCC2)N1CCOCC1 | false
* Cn1c(I)c(C#C[Si](C)(C)C)c(=O)n(C(=O)c2ccccc2)c1=O | false
* COc1ccc2nc(NNC(=O)c3cnccn3)c3cccn3c2c1 | true
* O=C(CCCCCCSc1nc(-c2ccccc2)cc(-c2ccc(Cl)cc2)n1)NO | true
* CCCCCc1nc2c(c3c1CCCC3)CCCC2 | false
* O=[N+]([O-])c1ccc(C2CC(c3ccccc3)=Nc3ccccc3S2)cc1 (stereo not given) | false
* O=S(=O)(O)c1ccc(N/N=C/c2ccccc2Cl)cc1 | false
* COc1ccc(-c2nc3c(c(=O)n2C(C)=O)C(c2ccc(Cl)cc2)c2sc4c(Cl)cccc4c2O3)cc1 (stereo not given) | true
* COc1cc(C2CC(c3cc(OC)c(OCCCOc4ccc(-n5c(/C=C/c6ccccc6)nc6ccccc6c5=O)cc4)c(OC)c3)=NO2)cc(OC)c1OC (stereo not given) | false

====

# Test system: SNB-75 CNS
# assay.text: NCI-60 one-dose screen, 48 h
# experimental.context: 10 µM unless noted
This is part of a sample that, as a whole, favours compounds with a hit. Of some 83,000 tested, about 20% had one in any assay. Calls of active or inactive are those of the source. The calls were made as follows: active = growth percent below 10; inactive = the rest.
Labels: label 1 (active), label 0 (inactive)

• COC(=O)[C@]12CC[C@@H](C)[C@H](C)[C@@H]1C1=CC[C@@H]3[C@@]4(C)C(C=O)=C[C@@](C)(COC(C)=O)[C@@H]4C(=O)C[C@@]3(C)[C@]1(C)CC2 = label 0
• O=C(Nc1cccc(Oc2nnc(Cl)c3ccccc23)c1)Nc1ccc(Cl)c(C(F)(F)F)c1 = label 1
• O=C(NCCCNc1cc(-c2cn(-c3ccccc3)nc2-c2cccc(O)c2)ccn1)c1ccccc1 = label 0
• Cn1c(=O)c2c(nc(Cl)n2CCl)n(C)c1=O = label 0
• COC1=C(OC)C(=O)C(OC)=C(OC)C1=O = label 0
• CCCCCCCCCCN(CCCCCCCCCC)CC(=O)c1ccc2cc(Br)c3ccccc3c2c1 = label 0
• CN(C)CC1=NC2SC=C(c3ccccc3)C2C(=O)N1CC#N (centres undefined) = label 0
• N/C(=N\c1nc2ccccc2s1)NC(=O)Nc1cccc(Cl)c1 = label 0
• O=C1C=C[C@]2(C[C@@H](c3cccc(C(F)(F)F)c3)O[C@@H](c3cccc(C(F)(F)F)c3)O2)O1 = label 0
